- TARGET: glucosylceramide synthase (GCS) (Homo sapiens (Human), UniProt Q16739)
- Sequence (Q16739 whole entry): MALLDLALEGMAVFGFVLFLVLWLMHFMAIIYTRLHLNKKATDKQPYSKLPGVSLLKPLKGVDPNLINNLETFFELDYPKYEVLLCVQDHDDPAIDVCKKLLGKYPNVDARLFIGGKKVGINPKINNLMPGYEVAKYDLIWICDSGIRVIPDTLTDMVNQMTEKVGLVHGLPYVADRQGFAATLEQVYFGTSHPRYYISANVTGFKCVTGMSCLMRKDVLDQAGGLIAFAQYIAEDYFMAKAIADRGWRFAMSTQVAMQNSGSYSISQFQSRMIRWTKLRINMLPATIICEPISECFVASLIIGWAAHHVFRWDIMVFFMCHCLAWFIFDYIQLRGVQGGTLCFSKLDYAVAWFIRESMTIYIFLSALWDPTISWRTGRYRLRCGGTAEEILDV
- RUN_DESCRIPTION: Evaluation of inhibitory activities against GCS (A549 cell lysate, NBD C6-ceramide, HPLC)
- Format: biochemical
- Protocol: The inhibitory activities of the compounds of the present invention against GCS were evaluated, as follows, according to the method described in the known literature (Hayashi Y et al., A sensitive and reproducible assay to measure the activity of glucosylceramide synthase and lactosylceramide synthase using HPLC and fluorescent substrates, Analytical Biochemistry 345 (2005) 181-186). Ibiglustat, known as a GCS inhibitor, was used as a control. […]
Recorded IC50 for the following compounds
Answer format: numeric, pM implied, no suffix.

| COMPOUND | MEASURE_UNIT | MEASURED_RESULT |
| --- | --- | --- |
| CCCOc1c(C)cc(-c2ccc3c(c2)CCC(C)(C)[C@H]3NC(=O)O[C@@H]2CN3CCC2CC3)cc1C [Example 148] | pM | 1600 |
| Cc1ccc(-c2cc3c(cc2F)[C@H](NC(=O)O[C@@H]2CN4CCC2CC4)C(C)(C)C3)cc1Cl [Example 84] | pM | 290 |
| CC(C)Oc1c(F)cc(-c2ccc3c(c2)CC(C)(C)[C@H]3NC(=O)O[C@@H]2CN3CCC2CC3)cc1F [Example 37] | pM | 1940 |

Now for a further compound.
*Q* Quick one: IC50 for CCCCc1ccc(-c2cc3c(cc2C)[C@H](NC(=O)O[C@@H]2CN4CCC2CC4)C(C)(C)C3)cc1 [Example 118] ?
*A* 200

This collection of values is drawn from patent US20240262819A1.
